molecular target: ZFP SBS#1522 (synthetic); experiment: EMSA; conditions: tags: MBP fusion
Sequence (chain, as listed by the source): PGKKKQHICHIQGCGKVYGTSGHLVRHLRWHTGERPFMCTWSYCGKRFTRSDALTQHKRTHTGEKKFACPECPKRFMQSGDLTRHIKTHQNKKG
READOUT KIND: pKd
Quick note: pKd values are minus log10 of concentrations in mol/L.

Asked: Give me measured pKd, please, for this binder: GCAATGGGT (dsDNA) DNA 1: GCAATGGGT DNA 2: ACCCATTGC
Given back: 10.10
